system_under_test: WDR5 (WD (Trp-Asp) repeat domain 5) (UniProt P61964 1-334)
assay_summary: fluorescence polarisation
Square brackets hold non-standard residues; d marks the D form. ACPC = not defined here
value_type: Ki (nM)
Provide only the numeric value, understood in nM.

(Q) Item under review: Ac-Val-Arg-[ACPC]-NH2 (reading uncertain) [VR-ACPC] . Reported Ki?
(A) 600
